target: human MC3R (human, UniProt P41968 1-323); assay: cell-based or functional assay
Sequence (P41968 whole entry): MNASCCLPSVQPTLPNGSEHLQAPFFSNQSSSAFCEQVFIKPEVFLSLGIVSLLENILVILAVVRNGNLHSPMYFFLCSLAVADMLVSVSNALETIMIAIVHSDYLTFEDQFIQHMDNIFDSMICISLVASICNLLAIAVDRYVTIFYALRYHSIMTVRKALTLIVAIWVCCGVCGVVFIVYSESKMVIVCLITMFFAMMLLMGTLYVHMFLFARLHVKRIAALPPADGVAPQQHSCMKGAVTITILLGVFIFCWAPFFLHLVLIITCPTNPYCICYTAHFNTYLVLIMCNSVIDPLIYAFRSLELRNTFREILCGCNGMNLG
Positions of bridges follow the written chain, without caps; N, C: chain ends. Non-standard residues stand in square brackets, D forms with d. Cit = NC(=O)NCCC[C@H](N)C(=O)O; Aib = CC(C)(N)C(=O)O
Reported cAMP EC50 is given for each of the following binders.
Express your answer in nM, writing the number without its unit.

Please review the entries below; each comes with its answer.
Ac-C[Aib][Cit][dF]RWC-NH2 (disulfide 1-7; SMILES CC(=O)N[C@H]1CSSC[C@@H](C(N)=O)NC(=O)[C@H](Cc2c[nH]c3ccccc23)NC(=O)[C@H](CCCNC(=N)N)NC(=O)[C@@H](Cc2ccccc2)NC(=O)[C@H](CCCNC(N)=O)NC(=O)C(C)(C)NC1=O) [CTX-1633] = 290
Ac-RC[dA]R[dF]R[dF]C-NH2 (disulfide 2-8; SMILES CC(=O)N[C@@H](CCCNC(=N)N)C(=O)N[C@H]1CSSC[C@@H](C(N)=O)NC(=O)[C@@H](Cc2ccccc2)NC(=O)[C@H](CCCNC(=N)N)NC(=O)[C@@H](Cc2ccccc2)NC(=O)[C@H](CCCNC(=N)N)NC(=O)[C@@H](C)NC1=O) [CTX-1257] = 44

Incoming: Any idea what cAMP EC50 was measured for Ac-CG[Cit][dF]RWC-NH2 (disulfide 1-7; SMILES CC(=O)N[C@H]1CSSC[C@@H](C(N)=O)NC(=O)[C@H](Cc2c[nH]c3ccccc23)NC(=O)[C@H](CCCNC(=N)N)NC(=O)[C@@H](Cc2ccccc2)NC(=O)[C@H](CCCNC(N)=O)NC(=O)CNC1=O) [CTX-1630] ?
Outgoing: 614

Incoming: Then what about the binder {CH2CO}-[dA]H[dF]RWC-NH2 (thioether N-6; SMILES C[C@H]1NC(=O)CSC[C@@H](C(N)=O)NC(=O)[C@H](Cc2c[nH]c3ccccc23)NC(=O)[C@H](CCCNC(=N)N)NC(=O)[C@@H](Cc2ccccc2)NC(=O)[C@H](Cc2c[nH]cn2)NC1=O) [CTX-1202] ?
Outgoing: 130

Incoming: Follow-up entry: {CH2CO}-[dA][Cit][dF]RWC-NH2 (thioether N-6; SMILES C[C@H]1NC(=O)CSC[C@@H](C(N)=O)NC(=O)[C@H](Cc2c[nH]c3ccccc23)NC(=O)[C@H](CCCNC(=N)N)NC(=O)[C@@H](Cc2ccccc2)NC(=O)[C@H](CCCNC(N)=O)NC1=O) [CTX-1643]
Outgoing: 2550
